Record form. Attribute: DC50. Fill in for each entry.
# measurement.target: BCL-XL (Homo sapiens)
# Construct: BCL-XL degradation results in MOLT-4 cells for compounds of the invention; endogenous in cells; host or cells: MOLT-4
# Sequence (Q07817 whole entry): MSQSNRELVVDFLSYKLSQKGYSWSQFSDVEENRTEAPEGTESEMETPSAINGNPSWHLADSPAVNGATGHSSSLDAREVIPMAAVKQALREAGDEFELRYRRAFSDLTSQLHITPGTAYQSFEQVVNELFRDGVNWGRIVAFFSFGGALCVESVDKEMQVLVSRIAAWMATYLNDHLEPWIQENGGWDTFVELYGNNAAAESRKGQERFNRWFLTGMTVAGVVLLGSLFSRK
# assay.details: BCL-XL degradation assay in MOLT-4 cells (ELISA, 6 h)
# Format: cell-based
# test.parameters: read-out: Bcl-xL ELISA in MOLT-4 degradation 6 h: External Abs-DC50

// known answers, use as guide
# compound, result
records = [
    ("Cc1ncsc1-c1ccc([C@H](C)NC(=O)[C@@H]2C[C@@H](O)CN2C(=O)[C@@H](NC(=O)CCCCCC(=O)N2CCN(CCCNc3ccc(S(=O)(=O)NC(=O)c4ccc(N5CCN(Cc6ccccc6-c6ccc(Cl)cc6)CC5)cc4Oc4cnc5[nH]ccc5c4)cc3S(=O)(=O)C(F)(F)F)CC2)C(C)(C)C)cc1 [I-51]", "100 to 500 nM"),
    ("Cc1ncsc1-c1ccc([C@H](C)NC(=O)[C@@H]2C[C@@H](O)CN2C(=O)[C@@H](NC(=O)CCCCCC(=O)N2CCN(CC[C@H](CSc3ccccc3)Nc3ccc(S(=O)(=O)NC(=O)c4ccc(N5CC6CCC5C6)cc4)cc3S(=O)(=O)C(F)(F)F)CC2)C(C)(C)C)cc1 (some centres unmarked) [I-40]", "500 to 1000 nM"),
    ("Cc1ncsc1-c1ccc(CNC(=O)[C@@H]2C[C@@H](O)CN2C(=O)[C@@H](NC(=O)CCCCCCC(=O)N2CCN(C[C@]3(C)CCC(c4ccc(Cl)cc4)=C(CN4CCN(c5ccc(C(=O)NS(=O)(=O)c6ccc(NCCCN7CCOCC7)c(S(=O)(=O)C(F)(F)F)c6)c(Oc6cnc7[nH]ccc7c6)c5)CC4)C3)CC2)C(C)(C)C)cc1 [I-131]", "500 to 1000 nM"),
]

Provide DC50 for all items below, preserving their order.
1. Cc1ncsc1-c1ccc([C@H](C)NC(=O)[C@@H]2C[C@@H](O)CN2C(=O)[C@@H](NC(=O)CCCCCCNC(=O)c2ccc(-c3ccc(Cl)cc3)c(CN3CCN(c4ccc(C(=O)NS(=O)(=O)c5ccc(N[C@H](CCN(C)C)CSc6ccccc6)c([N+](=O)[O-])c5)cc4)CC3)c2)C(C)(C)C)cc1 [I-11]
2. C#Cc1ccc([C@H](C)NC(=O)[C@@H]2C[C@@H](O)CN2C(=O)[C@@H](NC(=O)CCCCCC(=O)N2CCN(CCCNc3ccc(S(=O)(=O)NC(=O)c4ccc(N5CCN(CC6=C(c7ccc(Cl)cc7)CC(C)(C)CC6)CC5)cc4Oc4cnc5[nH]ccc5c4)cc3S(=O)(=O)C(F)(F)F)CC2)C(C)(C)C)cc1F [I-105]

["500 to 1000 nM", "100 to 500 nM"]

====

# measurement.target: BCL-XL (Homo sapiens)
# Construct: BCL-XL degradation results in MOLT-4 cells for compounds of the invention; endogenous in cells; host or cells: MOLT-4
# assay.details: BCL-XL degradation assay in MOLT-4 cells (ELISA, 6 h)
# Assay type: cell-based
# test.parameters: read-out: Bcl-xL ELISA in MOLT-4 degradation 6 h: External Abs-DC50
So I've got a bunch of molecules here, and I need their DC50 values.

Some solved cases for reference:
# molecule, result
data = [
    ("Cc1ncsc1-c1ccc([C@H](C)NC(=O)[C@@H]2C[C@@H](O)CN2C(=O)[C@@H](NC(=O)CCCCCC(=O)N2CCN(CC[C@H](CSc3ccccc3)Nc3ccc(S(=O)(=O)NC(=O)c4ccc(N5CCCN(C)CC5)cc4)cc3S(=O)(=O)C(F)(F)F)CC2)C(C)(C)C)cc1", "500 to 1000 nM"),
    ("Cc1ncsc1-c1ccc([C@H](C)NC(=O)[C@@H]2C[C@@H](O)CN2C(=O)[C@@H](NC(=O)CCCCCC(=O)N2CCN(CCCNc3ccc(S(=O)(=O)NC(=O)c4ccc(N5CCN(CC6=C(c7ccc(Cl)cc7)CCC(C)(C)C6)CC5)cc4Oc4cnc5[nH]ccc5c4)cc3S(=O)(=O)C(F)(F)F)CC2)C(C)(C)C)cc1", "100 to 500 nM"),
    ("Cc1ncsc1-c1ccc([C@H](C)NC(=O)[C@@H]2C[C@@H](O)CN2C(=O)[C@@H](NC(=O)C2CCN(c3ccc(NC(=O)c4ccc(-c5ccc(Cl)cc5)c(CN5CCN(c6ccc(C(=O)NS(=O)(=O)c7ccc(N[C@H](CCN(C)C)CSc8ccccc8)c([N+](=O)[O-])c7)cc6)CC5)c4)cc3)CC2)C(C)(C)C)cc1", "500 to 1000 nM"),
    ("Cc1ncsc1-c1ccc([C@H](C)NC(=O)[C@@H]2C[C@@H](O)CN2C(=O)[C@@H](NC(=O)CCCCCC(=O)N2CCN(CCCNc3ccc(S(=O)(=O)NC(=O)c4ccc(N5CCC([C@H](O)c6ccccc6-c6ccc(Cl)cc6)CC5)cc4Oc4cnc5[nH]ccc5c4)cc3S(=O)(=O)C(F)(F)F)CC2)C(C)(C)C)cc1 (single isomer, unassigned)", "100 to 500 nM"),
    ("Cc1ncsc1-c1ccc([C@H](C)NC(=O)[C@@H]2C[C@@H](O)CN2C(=O)[C@@H](NC(=O)CCCCCCC(=O)N2CCN(C[C@]3(C)CCC(c4ccc(Cl)cc4)=C(CN4CCN(c5ccc(C(=O)NS(=O)(=O)c6ccc(NCCCN7CCOCC7)c(S(=O)(=O)C(F)(F)F)c6)c(Oc6cnc7[nH]ccc7c6)c5)CC4)C3)CC2)C(C)(C)C)cc1", "10 to 100 nM"),
]

Proceeding to the next molecule to report its DC50.
Name the recorded DC50 for Cc1ncsc1-c1ccc([C@H](C)NC(=O)[C@@H]2C[C@@H](O)CN2C(=O)[C@@H](NC(=O)CCCCCC(=O)N2CCN(c3ccc(-c4ccc(Cl)cc4)c([C@H](O)C4CCN(c5ccc(C(=O)NS(=O)(=O)c6ccc(N[C@H](CCN(C)CCO)CSc7ccccc7)c(S(=O)(=O)C(F)(F)F)c6)cc5)CC4)c3)CC2)C(C)(C)C)cc1 (single isomer, unassigned) .
< 10 nM
